Task for the reader: assign each of the following compounds its reported activation.
# Test system: Aedes aegypti neuropeptide Y-like receptor 7 (NPYLR7)
# assay_method_text: agonists of mosquito NPYLR7 receptor, primary screen, cell-based, Aedes aegypti, calcium fluorescence, mosquito biting behavior (AID 1259423);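 also: 0% = vehicle and 100% = reference agonist at the receptor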
# experimental_conditions: HEK293T NPYLR7/Galpha15, GCaMP6s calcium fluorescence; at 10 µM; active compounds read high
In all, about 270,000 compounds went through this assay and about 410 (0.15%) were called active. The full list was thinned out, with actives kept by preference.
Numbers only, in %.

{"compound": "O=C(Cc1cnn(-c2ccccc2)n1)N1CCCCCCC1", "assay_target": "Aedes aegypti neuropeptide Y-like receptor 7 (NPYLR7)", "assay_result": 10.9}

Please give activation, item by item, for the list that follows.
1. CC[C@H]1CN(Cc2cc(Cl)cc(OC)c2OC)CC[C@@]1(C)O
2. CCN1CCN(CC(O)COc2ccc(CN3CCc4ccccc4C3)cc2OC)CC1 (stereo not drawn)
3. CCc1nc2ccc(C(=O)N(C)Cc3ccco3)cn2c1N(C)CCC(C)C
4. Cc1ccc(NC(=O)Cn2cnc3sc4c(c3c2=O)CCC4)c(F)c1
5. CSc1[s+]sc2c1-c1ccc(C)cc1NC2(C)C
6. CCC1CCCCN1C(=O)CSc1c(C)[nH]c2ccccc12 (stereo not drawn)

[-5.14, 3.88, -5.57, -14.9, -1.46, -1.59]

Go through the list and state activation for each entry.
1. O=C1OCCN1Cc1nc(CCc2ccccc2)nn1-c1ccccn1
2. CC(C)CNC(=O)c1ccc2c(=O)n(Cc3ccccc3)c3nn(CC(N)=O)c(=O)n3c2c1
3. CCOc1ccc(NC(=O)CSc2nc3c(c(=O)n2CCOC)SC(C)C3)cc1 (stereo not drawn)
4. CN(Cc1ccccc1)C1(C(=O)NCC2COCCO2)Cc2ccccc2C1 (stereo not drawn)
5. CCOc1ccc(C(=O)Nc2sc3c(c2-c2nc4ccccc4s2)CCN(C)C3)cc1
6. CCOc1ccc(N2CC(NC(=O)Nc3ncccc3C)CC2=O)cc1 (stereo not drawn)

1: -2.22; 2: 2.33; 3: 3.32; 4: 2.27; 5: 105; 6: 2.56

Batch request: activation per item, same order as input.
1. COCCNCC(=O)N(Cc1ccccc1)Cc1ccc(C)s1
2. COc1ccc(-n2nnc3c(N4CCN(C(=O)c5ccc(Br)o5)CC4)ncnc32)cc1
3. CC1CN(C(=O)NCC(C)N(C)c2ccccc2)CC(C)O1 (stereo not drawn)

1. -5.15
2. -8.62
3. 4.84

Could you report activation for every entry in the following list?
1. O=C(CNCCN1CCOCC1)N(Cc1ccccc1)Cc1cccs1
2. CC1CCC(C(C)C)C(OCC(O)CN2CCN(CCO)CC2)C1 (stereo not drawn)
3. Cc1ccc(CN(Cc2ccc(F)cc2)C(=O)CNCCN2CCOCC2)s1

-7.58
0.73
56.1

###

Would you kindly list activation for each of these compounds?
# Tested on: Aedes aegypti neuropeptide Y-like receptor 7 (NPYLR7)
# assay_method_text: agonists of mosquito NPYLR7 receptor, primary screen, cell-based, Aedes aegypti, calcium fluorescence, mosquito biting behavior (AID 1259423);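 also: 0% = vehicle and 100% = reference agonist at the receptor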
# experimental_conditions: HEK293T NPYLR7/Galpha15, GCaMP6s calcium fluorescence; at 10 µM; active compounds read high
Hit rate of the full screen: of about 270,000 compounds, about 410 (0.15%) were called active. The full list was thinned out, with actives kept by preference.
Answers are plain numbers, in %.

Example compounds with recorded activation:
{"compound": "NC(=O)[C@@H]1CN2CCN(C(=O)c3ccco3)C[C@@H]2[C@H]1c1ccccc1", "assay_target": "Aedes aegypti neuropeptide Y-like receptor 7 (NPYLR7)", "activation (%)": 2.73}
{"compound": "Oc1ccc(-c2onc3ccc(Cl)cc23)cc1", "assay_target": "Aedes aegypti neuropeptide Y-like receptor 7 (NPYLR7)", "activation (%)": 112}
{"compound": "COc1ccccc1-c1cc(C(=O)N2CCCC2)n2nc(C(C)(C)C)cc2n1", "assay_target": "Aedes aegypti neuropeptide Y-like receptor 7 (NPYLR7)", "activation (%)": 3.24}

For every item in the list below, what is its measured activation?
1. Cc1ccc(CN(CCN2CCOCC2)CC(O)c2ccccc2)s1 (stereo unspecified)
2. CC(C)c1ccc(C(=O)NCc2ccccc2CS(=O)(=O)N2CCOCC2)cc1
3. CC(c1cccs1)N(C)C(=O)c1n[nH]c(C2CC2)c1Br (stereo unspecified)

1. 1.67
2. -3.68
3. -2.08
